Test System: α4β2*-nAChRs (Rattus norvegicus, UniProt P09483+P12390)
Sequence (P09483 31-630): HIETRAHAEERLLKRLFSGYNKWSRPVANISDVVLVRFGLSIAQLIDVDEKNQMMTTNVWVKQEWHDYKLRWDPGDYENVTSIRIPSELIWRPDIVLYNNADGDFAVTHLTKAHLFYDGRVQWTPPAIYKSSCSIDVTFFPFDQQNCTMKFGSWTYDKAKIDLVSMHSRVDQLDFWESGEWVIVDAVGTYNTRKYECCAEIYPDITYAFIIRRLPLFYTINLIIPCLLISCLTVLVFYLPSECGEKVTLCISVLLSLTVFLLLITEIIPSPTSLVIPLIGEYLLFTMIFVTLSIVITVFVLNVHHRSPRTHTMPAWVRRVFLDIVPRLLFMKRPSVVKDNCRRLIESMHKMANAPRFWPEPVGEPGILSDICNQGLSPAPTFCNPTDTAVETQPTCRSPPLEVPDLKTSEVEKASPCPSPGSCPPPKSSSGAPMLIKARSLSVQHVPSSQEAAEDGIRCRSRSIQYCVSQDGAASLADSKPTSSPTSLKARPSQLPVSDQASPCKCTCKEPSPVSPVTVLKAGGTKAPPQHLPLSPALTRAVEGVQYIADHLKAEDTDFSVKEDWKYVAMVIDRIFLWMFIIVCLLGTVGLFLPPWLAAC
Sequence (P12390 25-500): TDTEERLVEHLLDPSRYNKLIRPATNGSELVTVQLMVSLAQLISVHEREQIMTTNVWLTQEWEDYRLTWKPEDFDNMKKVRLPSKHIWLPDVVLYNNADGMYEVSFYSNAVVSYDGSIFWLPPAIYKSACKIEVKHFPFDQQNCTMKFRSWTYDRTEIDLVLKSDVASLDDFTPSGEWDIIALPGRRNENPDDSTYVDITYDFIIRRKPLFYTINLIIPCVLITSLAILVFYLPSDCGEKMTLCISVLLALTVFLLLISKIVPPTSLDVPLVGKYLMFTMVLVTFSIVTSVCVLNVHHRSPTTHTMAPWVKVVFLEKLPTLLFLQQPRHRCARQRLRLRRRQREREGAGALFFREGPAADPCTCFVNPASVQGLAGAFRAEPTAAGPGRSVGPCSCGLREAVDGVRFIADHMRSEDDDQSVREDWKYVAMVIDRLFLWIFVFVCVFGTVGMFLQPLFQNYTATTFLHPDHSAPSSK
Assay: biochemical
Assay Metric: Ki (nM)

{"Smiles Str": "c1cncc(-c2cncc([C@H]3C[C@H]4CC[C@H]3N4)c2)c1", "Assay Metric": "Ki", "Data Value": 0.12}
